- experimental.system: cloned human κ opioid receptor (Homo sapiens)
- Sequence (P41145 whole entry): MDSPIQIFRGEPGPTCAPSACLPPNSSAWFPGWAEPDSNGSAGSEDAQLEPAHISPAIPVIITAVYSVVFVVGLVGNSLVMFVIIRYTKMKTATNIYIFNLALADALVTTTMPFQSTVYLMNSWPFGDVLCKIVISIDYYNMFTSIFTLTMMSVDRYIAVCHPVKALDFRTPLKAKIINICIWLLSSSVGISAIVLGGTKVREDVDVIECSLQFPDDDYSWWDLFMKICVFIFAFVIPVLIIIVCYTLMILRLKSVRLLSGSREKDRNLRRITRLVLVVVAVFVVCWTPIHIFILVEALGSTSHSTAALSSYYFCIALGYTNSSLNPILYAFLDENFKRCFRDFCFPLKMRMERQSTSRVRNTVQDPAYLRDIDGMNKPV
assay.readout: Ki (nM)

smiles_entry=C[C@H]1CN(C[C@H](Cc2ccccc2)C(=O)N[C@@H](CCCN)C(=O)O)CC[C@@]1(C)c1cccc(O)c1 experimental_system="cloned human κ opioid receptor (Homo sapiens)" assay_readout=Ki value_measured=200

###

- experimental.system: cloned human δ opioid receptor (Homo sapiens)
- Sequence (P41143 whole entry): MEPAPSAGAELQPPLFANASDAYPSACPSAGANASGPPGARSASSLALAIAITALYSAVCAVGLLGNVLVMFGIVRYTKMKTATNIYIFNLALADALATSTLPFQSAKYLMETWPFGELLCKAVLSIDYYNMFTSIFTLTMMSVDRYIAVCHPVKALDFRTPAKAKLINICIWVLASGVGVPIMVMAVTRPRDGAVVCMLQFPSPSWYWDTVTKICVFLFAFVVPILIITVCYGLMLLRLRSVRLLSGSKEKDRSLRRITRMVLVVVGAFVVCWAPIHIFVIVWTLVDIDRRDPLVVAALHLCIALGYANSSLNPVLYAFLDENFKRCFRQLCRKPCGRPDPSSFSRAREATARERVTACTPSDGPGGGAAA
assay.readout: Ki

compound="C[C@H]1CN(C[C@H](Cc2ccccc2)C(=O)N[C@@H](CCCN)C(=O)O)CC[C@@]1(C)c1cccc(O)c1 [Example 28]" assay_readout=Ki value_measured="510 nM"
